Test system: OVCAR-8 ovarian
Test: NCI-60 one-dose screen, 48 h
Conditions: 10 µM unless noted
The panel holds about 83,000 compounds, 20% with a hit somewhere; the sample as a whole holds those more often. Activity calls are given as the source filed them. How the source made its calls: active means growth percent below 10; inactive means the rest.
Outcome field: choose from active, inactive

stdin: Test call for this molecule, please: CS(=O)(=O)c1ccc(C(=O)N/N=C/c2ccc3c(c2)OCO3)cc1
stdout: inactive

stdin: Next molecule: CCCCCCCCCCCCCCCC1=NC(C)(C)CN1C(C)C
stdout: active

stdin: Also, Nc1nc(N)c2cc(NCc3ccc(Cl)c(Cl)c3)ccc2n1 please.
stdout: active

stdin: Next up: O=C1NN(C(=O)c2ccccc2)C(c2ccc(Cl)c(Cl)c2)=C/C1=C\c1ccccc1[N+](=O)[O-]
stdout: inactive

stdin: What about CN1C(=O)N(C)C2C1NN=c1s/c(=C\c3ccsc3)c(=O)n12 (centres undefined) ?
stdout: inactive

stdin: Repeat for the following molecule: C=C1C[C@@]2(C)C(CC[C@]3(C)C2CC=C2C4CC(C)(C)C[C@@H](OC(=O)/C(C)=C\C)[C@]4(C(=O)O)CC[C@]23C)C(C)(C)C1=O (some centres undefined)
stdout: inactive

stdin: How about CCCCCCCC/C=C/CCCCCCCC1=NC(C)(C)CN1C(C)C ?
stdout: active

stdin: And the next one, CO[C@H](C(=O)[C@@H](O)[C@@H](C)O)[C@@H]1Cc2cc3cc(O[C@H]4C[C@@H](O[C@H]5C[C@@H](O)[C@H](O)C(C)O5)[C@H](O)C(C)O4)c(C)c(O)c3c(O)c2C(=O)[C@H]1O[C@H]1C[C@@H](O[C@H]2C[C@@H](O[C@H]3C[C@](C)(O)C(=O)C(C)O3)[C@@H](O)C(C)O2)[C@H](O)C(C)O1 (some centres undefined) ?
stdout: active

stdin: // next record COc1cccc(-c2nc3sccn3c2-c2ccnc(NCCN3CCCN(C)S3(=O)=O)n2)c1
stdout: inactive

---

System: NCI/ADR-RES ovarian
Assay: NCI-60 one-dose screen, 48 h (100 = growth as untreated, 0 = no growth, -100 = all killed)
Conditions: 10 µM unless noted
The panel holds about 83,000 compounds, 20% with a hit somewhere; the sample as a whole holds those more often.
Hi there, I'd appreciate the recorded growth for every entry that follows.
All answers are understood in %, so give the number only.

stdin: Give the measured growth of Cc1cc([N+](=O)[O-])c(C)cc1N .
stdout: 106

stdin: Another compound to check: CC(C)N(C(=S)SSC(=S)N(C(C)C)C(C)C)C(C)C
stdout: 104

stdin: Same thing, different compound: CCS(=O)(=O)Nc1cccc(Nc2c3cccc(C)c3nc3c(C)cccc23)c1OC
stdout: 41.7

stdin: How about this compound: CN(C)N1C(=O)c2c(Cl)c(Cl)c(Cl)c(Cl)c2C1=O
stdout: 101

stdin: What about CCn1c(Cc2ccccc2Nc2c(Cl)cccc2Cl)nnc1SCC(=O)Nc1cccc(OC)c1 ?
stdout: 86.1

stdin: # repeat for CCN1C(=O)C(C)C=C(C)C=C1C (stereo unspecified)
stdout: 119

stdin: Same read-out for Clc1nnc2c3ccccc3ccn12 ?
stdout: 112

stdin: And the next one, CCCCc1nc(Cl)c(C2CC(c3ccc(S(N)(=O)=O)cc3)=NN2c2cc(Cl)cc(Cl)c2)[nH]1 (stereo unspecified) ?
stdout: 90

stdin: Next compound: CCOC(=O)C1=C(C(=O)OCC)N(c2cc(OC)c(OC)c(OC)c2)C(N)=C(C#N)C1c1cc(=O)[nH]c2ccccc12 (stereo unspecified)
stdout: 101

stdin: Ok, now COc1ccc(NC(=O)c2sc3c(=O)[nH]c(C(F)(F)F)nc3c2C)cc1
stdout: 102

stdin: Next record, please: Oc1ccccc1-c1nnc(COc2ccc(Cl)cc2Cl)o1
stdout: 30.6

---

Test system: HT29 colon
Assay: NCI-60 one-dose screen, 48 h
Details: 10 µM unless noted
The panel holds about 83,000 compounds, 20% with a hit somewhere; the sample as a whole holds those more often. Activity calls are given as the source filed them. Rule for the calls: active = growth percent below 10; inactive = the rest.
Choose one outcome from this list and give only that: active, inactive

stdin: Write down the call the test reported for this compound. Item: CC(C)CCC(=O)[C@@H](C)[C@H]1[C@@H](OC2OCC(O)C(O)C2NS(C)(=O)=O)C[C@H]2[C@@H]3CC=C4C[C@@H](O)CC[C@]4(C)[C@H]3CC[C@]12C (some centres undefined)
stdout: inactive

stdin: Ok, now COc1cc(-c2nn(C(=O)NCCN3CCN(C)CC3)cc2-c2ccncc2)ccc1Cl
stdout: inactive

stdin: // same read-out, input: CC(SC(C)C(=O)N/N=C/c1cccc(Cl)c1)C(=O)N/N=C\c1cccc(Cl)c1 (centres undefined)
stdout: inactive

stdin: Repeat with C=C(COC(C)=O)[C@H]1CC/C(C)=C/CC/C(C)=C/CC[C@@]2(C)O[C@H]2C1
stdout: inactive

stdin: Queued: CCC1N=C(N)N=C(N)N1c1ccc(Cl)cc1 (centres undefined)
stdout: inactive

stdin: Input COc1ncnc2[nH]cc(CN3CCN(c4ccc(F)cc4)CC3)c12
stdout: inactive

stdin: Ok, now COc1cc(NC(=O)CSc2nc3ccc(Cl)cc3c(=O)n2Cc2ccccc2)cc(OC)c1OC
stdout: inactive

stdin: Now consider CC1=CC(=O)OC1C/C=C(\C)CCC1[C@@]2(C)CCC[C@@](C)(C(=O)O)C2CC[C@@]1(C)O (some centres undefined) and answer again.
stdout: inactive

stdin: Input CC1CCN(CCCCCOc2ccc3oc4ccc(Cl)cc4c(=O)c3c2)CC1
stdout: active

---

Test system: UACC-62 melanoma
Assay: NCI-60 one-dose screen, 48 h
Details: 10 µM unless noted
The panel holds about 83,000 compounds, 20% with a hit somewhere; the sample as a whole holds those more often. Calls of active or inactive are those of the source. Rule for the calls: active = growth percent below 10; inactive = the rest.
One label from this list, please: active, inactive

stdin: What did the test return for COc1cnc2c(c1)C(=O)c1c-2n(CCCNC(C)C)c(=O)c2cc(Cl)ccc12 ?
stdout: active

stdin: Could you do the same for COc1cc(-c2nn(C(=O)NCCN3CCN(C)CC3)cc2-c2ccncc2)ccc1Cl , please?
stdout: inactive

stdin: Again, but for Cn1cnc([N+](=O)[O-])c1S(=O)(=O)Oc1ccccc1
stdout: inactive

stdin: Then this compound: NC(=S)N1N=C(c2ccc(Cl)cc2)CC1c1cc2ccccc2[nH]c1=O (stereo not given)
stdout: inactive

stdin: Can you handle Cn1cnc([N+](=O)[O-])c1S(=O)(=O)Oc1cccc2ccccc12 next?
stdout: inactive

---

Tested on: SNB-75 CNS
Experiment: NCI-60 one-dose screen, 48 h (100 = growth as untreated, 0 = no growth, -100 = all killed)
Conditions: 10 µM unless noted
Compounds without any hit were thinned out: in the full panel of roughly 83,000, 20% have a hit.
Classify as follows. Reported growth greater than or equal to 90%: Condition met. Reported growth below: Condition not met.

stdin: API: above_or_equal(metric=growth, cutoff=90%) for item C=CCN1C(=O)/C(=c2\sc3n(c2=O)C2C(NN=3)N(CC)C(=O)N2CC)c2ccccc21 (stereo not drawn)
stdout: Condition not met

stdin: Next: COc1ccc(Cl)cc1Nc1nc(C(F)(F)F)ccc1C(=O)NN
stdout: Condition not met

stdin: Please do the same for COC(=O)OC1C(O[C@H]2C[C@H]3[C@@H]4CC=C5C[C@@H](O)CC[C@]5(C)[C@H]4CC[C@]3(C)[C@H]2[C@H](C)C(=O)CCC(C)C)OCC(O)C1OC1OCC(O)C(O)C1OC(=O)c1ccc(OC)cc1 (stereo partly drawn) as well.
stdout: Condition not met

stdin: Also, Cc1ccc([C@H]2c3[nH]c4ccccc4c3C[C@H]3C(=O)N(CCCCCCC(=O)NO)CC(=O)N23)cc1 please.
stdout: Condition not met

stdin: Do the same for COc1ccc2[nH]cc(C3(c4c[nH]c5ccc(OC)cc45)C(=O)Nc4ccc(F)cc43)c2c1 please
stdout: Condition not met

stdin: Thanks! And CCCCOc1nc2ccccc2cc1/C=C/c1cc(/C=C/c2cc3ccccc3nc2OCCCC)n(-c2ccccc2)n1 ?
stdout: Condition not met

stdin: How about this molecule: Cc1[nH]c2ccccc2c1C1=CC(=O)C=CC1=O
stdout: Condition not met

stdin: And for CCOc1cc(/C=N\NC(=O)C[N+](C)(C)C)ccc1O ?
stdout: Condition met

stdin: Again, but for COc1ccc(/C(C)=N/NC(=O)CSc2nc3ccccc3c(=O)n2CCc2ccc(S(N)(=O)=O)cc2)cc1
stdout: Condition not met

stdin: Now give it for CCCCCCCCCCCCC1CCC(=O)O1 (stereo not drawn) too.
stdout: Condition met

stdin: Check CCN(CC)c1ccc(/C=N/NC(=O)C[N+](C)(C)C)cc1 too.
stdout: Condition met

stdin: What do we get for CCOC(=O)C(CCCCC(NC(C)=O)(C(=O)OCC)C(=O)OCC)(NC(C)=O)C(=O)OCC ?
stdout: Condition met

stdin: Further, for O=C(Nc1cccc(-n2ccc3c(NC(=O)c4ccccc4)nccc32)c1)c1ccc(N2CCOCC2)c(C(F)(F)F)c1 ?
stdout: Condition not met

stdin: Record: CO[C@H](C(=O)[C@@H](O)[C@@H](C)O)[C@@H]1Cc2cc3cc(O[C@H]4C[C@@H](O[C@H]5C[C@@H](O)[C@H](O)C(C)O5)[C@H](O)C(C)O4)c(C)c(O)c3c(O)c2C(=O)[C@H]1O[C@H]1C[C@@H](O[C@H]2C[C@@H](O[C@H]3C[C@](C)(O)C(=O)C(C)O3)[C@@H](O)C(C)O2)[C@H](O)C(C)O1 (stereo partly drawn)
stdout: Condition not met

stdin: Subsequent entry: CCOC(=O)C1OC2(CCCC2)OC1C(=O)OCC (stereo not drawn)
stdout: Condition met

stdin: Query CN1CCCN(CCNc2nccc(-c3c(-c4cccc(O)c4)nc4sccn34)n2)S1(=O)=O next
stdout: Condition not met
